Biological target: UniProt:P30530
Details: read-out: IC50 Axl
METRIC: IC50 (nM)

>  <COMPOUND>
CCCCNc1ncc(C(=O)NCc2cncs2)c(N[C@H]2CC[C@H](O)CC2)n1 [UNC4344A]

>  <TESTED TARGET>
UniProt:P30530

>  <METRIC>
IC50

>  <MEASURE UNIT>
nM

>  <READOUT NUMBER>
196

$$$$
>  <COMPOUND>
CCCCNc1ncc(-c2ccc(CCN3CCCC3)cn2)c(N[C@H]2CC[C@H](O)CC2)n1 [UNC4221A]

>  <TESTED TARGET>
UniProt:P30530

>  <METRIC>
IC50

>  <MEASURE UNIT>
nM

>  <READOUT NUMBER>
104

$$$$
>  <COMPOUND>
CCCCNc1ncc(-c2ccc(N3CCCC3)nn2)c(N[C@H]2CC[C@H](O)CC2)n1 [UNC3044A]

>  <TESTED TARGET>
UniProt:P30530

>  <METRIC>
IC50

>  <MEASURE UNIT>
nM

>  <READOUT NUMBER>
912

$$$$
>  <COMPOUND>
CCCCNc1ncc(-c2cncc(N3CCCC3)n2)c(N[C@H]2CC[C@H](O)CC2)n1 [UNC3115A]

>  <TESTED TARGET>
UniProt:P30530

>  <METRIC>
IC50

>  <MEASURE UNIT>
nM

>  <READOUT NUMBER>
642

$$$$
>  <COMPOUND>
CCCCNc1ncc(-c2cc(NCC)ncn2)c(N[C@H]2CC[C@H](O)CC2)n1 [UNC3113A]

>  <TESTED TARGET>
UniProt:P30530

>  <METRIC>
IC50

>  <MEASURE UNIT>
nM

>  <READOUT NUMBER>
255

$$$$

====

Target: Axl (Homo sapiens (Human), UniProt P30530)
Sequence (P30530 26-894 limits assumed): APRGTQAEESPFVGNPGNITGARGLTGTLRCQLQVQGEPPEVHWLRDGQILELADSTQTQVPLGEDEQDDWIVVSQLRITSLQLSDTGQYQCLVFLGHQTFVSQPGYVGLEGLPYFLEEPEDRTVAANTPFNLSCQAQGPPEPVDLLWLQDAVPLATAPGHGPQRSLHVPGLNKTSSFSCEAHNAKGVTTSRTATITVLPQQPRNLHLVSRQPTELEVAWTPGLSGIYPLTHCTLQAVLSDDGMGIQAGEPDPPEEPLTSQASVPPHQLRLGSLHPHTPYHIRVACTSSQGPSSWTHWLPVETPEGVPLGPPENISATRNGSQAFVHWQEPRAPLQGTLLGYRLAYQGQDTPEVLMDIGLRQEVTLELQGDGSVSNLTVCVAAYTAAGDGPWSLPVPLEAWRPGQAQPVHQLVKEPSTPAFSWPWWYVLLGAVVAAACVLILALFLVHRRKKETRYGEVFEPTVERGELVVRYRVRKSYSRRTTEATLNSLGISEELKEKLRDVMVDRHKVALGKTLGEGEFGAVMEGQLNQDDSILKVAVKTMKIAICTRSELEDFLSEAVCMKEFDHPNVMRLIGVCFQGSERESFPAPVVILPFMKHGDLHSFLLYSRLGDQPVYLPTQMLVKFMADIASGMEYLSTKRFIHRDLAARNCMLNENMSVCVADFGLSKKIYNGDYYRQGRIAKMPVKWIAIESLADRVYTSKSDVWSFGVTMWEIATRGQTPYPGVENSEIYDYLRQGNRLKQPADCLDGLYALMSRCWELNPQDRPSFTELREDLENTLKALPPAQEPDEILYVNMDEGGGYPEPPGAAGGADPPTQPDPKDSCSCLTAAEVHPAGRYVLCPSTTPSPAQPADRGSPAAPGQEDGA
Conditions: read-out: IC50 Axl
pIC50: −log10 of the molar value.

>  <COMPOUND>
CCCCNc1ncc(-c2ccc(NC(=O)C3CCCC3)cn2)c(NC2CCC(O)CC2)n1 (stereo not shown) [UNC2791A]

>  <pIC50>
6.05

$$$$
>  <COMPOUND>
CCCCNc1ncc(-c2ccc(CN3C[C@@H]4C[C@H]3CN4)cn2)c(NC2CCC(O)CC2)n1 (stereo partly shown) [UNC4112A]

>  <pIC50>
7.49

$$$$
>  <COMPOUND>
CCCCNc1ncc(C(=O)NCc2ccc(-n3cnc(C)c3)cc2)c(N[C@H]2CC[C@H](O)CC2)n1 [UNC2956A]

>  <pIC50>
6.87

$$$$
>  <COMPOUND>
CCCCNc1ncc(-c2cnc(N)cn2)c(N[C@H]2CC[C@H](O)CC2)n1 [UNC3041A]

>  <pIC50>
6.01

$$$$
>  <COMPOUND>
CCCCNc1ncc(-c2cc(O)c(CN3CCCC3)cn2)c(N[C@H]2CC[C@H](O)CC2)n1 [UNC4230A]

>  <pIC50>
5.75

$$$$
>  <COMPOUND>
CCCCNc1ncc(-c2cc(Nc3ccc(OC)cc3)ncn2)c(N[C@H]2CC[C@H](O)CC2)n1 [UNC4269A]

>  <pIC50>
6.29

$$$$
>  <COMPOUND>
CCCCNc1ncc(C(=O)NCc2ccc(-c3ccccc3)nc2)c(N[C@H]2CC[C@H](O)CC2)n1 [UNC4234A]

>  <pIC50>
6.33

$$$$
>  <COMPOUND>
CCCCNc1ncc(-c2cc(N)ncn2)c(N[C@H]2CC[C@H](O)CC2)n1 [UNC3072A]

>  <pIC50>
6.91

$$$$
>  <COMPOUND>
CCCCNc1ncc(C(=O)NCc2ccc(-n3cccc3)cc2)c(N[C@H]2CC[C@H](O)CC2)n1 [UNC2880A]

>  <pIC50>
6.09

$$$$
>  <COMPOUND>
CCCCNc1ncc(-c2cc(Cl)c(CN3CCCC3)cn2)c(N[C@H]2CC[C@H](O)CC2)n1 [UNC4222A]

>  <pIC50>
7.41

$$$$
>  <COMPOUND>
CCCCNc1ncc(C(=O)NC2CCN(Cc3ccc(N4CCOCC4)cc3)CC2)c(N[C@H]2CC[C@H](O)CC2)n1 [UNC2918A]

>  <pIC50>
6.18

$$$$
>  <COMPOUND>
CCCCNc1ncc(-c2cc(NC)ncn2)c(N[C@H]2CC[C@H](O)CC2)n1 [UNC3126A]

>  <pIC50>
6.44

$$$$
>  <COMPOUND>
CCCCNc1ncc(C(=O)NCc2ccc(C3=CCCCC3)nc2)c(N[C@H]2CC[C@H](O)CC2)n1 [UNC4256A]

>  <pIC50>
6.13

$$$$
>  <COMPOUND>
CCCCNc1ncc(C(=O)NCC(=O)N2CCCCC2)c(N[C@H]2CC[C@H](O)CC2)n1 [UNC2604A]

>  <pIC50>
5.92

$$$$
>  <COMPOUND>
CCCCNc1ncc(C(=O)NCc2ccc(-c3ccc(C#N)cc3)nc2)c(N[C@H]2CC[C@H](O)CC2)n1 [UNC4239A]

>  <pIC50>
6.01

$$$$
>  <COMPOUND>
CCCCNc1ncc(C(=O)NCc2ccc(N3CCOCC3)cc2)c(N[C@H]2CC[C@H](O)CC2)n1 [UNC2804A]

>  <pIC50>
6.23

$$$$

====

Target: Tyro3 (Homo sapiens (Human))
Sequence (Q06418 41-890 limits assumed): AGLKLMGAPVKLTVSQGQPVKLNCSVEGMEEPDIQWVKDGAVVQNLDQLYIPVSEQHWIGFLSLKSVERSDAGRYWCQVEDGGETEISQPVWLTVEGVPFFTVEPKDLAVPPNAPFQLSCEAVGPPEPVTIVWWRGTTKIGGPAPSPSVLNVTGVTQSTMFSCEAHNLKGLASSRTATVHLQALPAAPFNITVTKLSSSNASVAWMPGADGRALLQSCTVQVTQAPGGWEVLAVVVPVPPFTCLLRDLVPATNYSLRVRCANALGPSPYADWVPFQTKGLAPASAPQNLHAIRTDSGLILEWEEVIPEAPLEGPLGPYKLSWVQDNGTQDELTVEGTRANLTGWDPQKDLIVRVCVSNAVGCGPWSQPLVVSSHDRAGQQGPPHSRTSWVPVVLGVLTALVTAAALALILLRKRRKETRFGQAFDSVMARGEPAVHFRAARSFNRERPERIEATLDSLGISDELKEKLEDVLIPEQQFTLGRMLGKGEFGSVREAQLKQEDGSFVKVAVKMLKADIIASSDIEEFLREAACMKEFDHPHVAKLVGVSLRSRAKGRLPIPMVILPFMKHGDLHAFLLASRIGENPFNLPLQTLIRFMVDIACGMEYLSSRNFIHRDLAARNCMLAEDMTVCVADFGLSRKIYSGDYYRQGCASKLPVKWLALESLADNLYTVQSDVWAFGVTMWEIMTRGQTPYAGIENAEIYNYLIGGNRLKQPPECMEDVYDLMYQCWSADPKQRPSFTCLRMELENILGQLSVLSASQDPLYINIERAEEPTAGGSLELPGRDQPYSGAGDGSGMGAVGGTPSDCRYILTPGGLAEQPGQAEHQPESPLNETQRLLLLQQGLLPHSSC
Settings: read-out: IC50 Tyro3
Rule: IC50 below 200 nM gives condition met. Equal to or above 200 nM gives condition not met.

>  <MOLECULE>
CCCCNc1ncc(-c2ccc(C3=CCN(C(C)C)CC3)cn2)c(N[C@H]2CC[C@H](O)CC2)n1 [UNC4358A]

>  <TESTED TARGET>
Tyro3 (Homo sapiens (Human))

>  <ASSIGNED CLASS>
condition met

$$$$
>  <MOLECULE>
CCCCNc1ncc(-c2ccc(CN3C4CCCC3CC4)cn2)c(N[C@H]2CC[C@H](O)CC2)n1 [UNC4169A]

>  <TESTED TARGET>
Tyro3 (Homo sapiens (Human))

>  <ASSIGNED CLASS>
condition met

$$$$
>  <MOLECULE>
CCCCNc1ncc(-c2nc(C(F)(F)F)cs2)c(N[C@H]2CC[C@H](O)CC2)n1 [UNC3149A]

>  <TESTED TARGET>
Tyro3 (Homo sapiens (Human))

>  <ASSIGNED CLASS>
condition not met

$$$$
>  <MOLECULE>
CCCCNc1ncc(-c2ncc(C(=O)O)s2)c(N[C@H]2CC[C@H](O)CC2)n1 [UNC3331A]

>  <TESTED TARGET>
Tyro3 (Homo sapiens (Human))

>  <ASSIGNED CLASS>
condition met

$$$$
>  <MOLECULE>
CCCCNc1ncc(-c2cncc(NC3CCCCC3)n2)c(N[C@H]2CC[C@H](O)CC2)n1 [UNC3137A]

>  <TESTED TARGET>
Tyro3 (Homo sapiens (Human))

>  <ASSIGNED CLASS>
condition not met

$$$$
>  <MOLECULE>
CCCCNc1ncc(-c2nc(CO)cs2)c(N[C@H]2CC[C@H](O)CC2)n1 [UNC3135A]

>  <TESTED TARGET>
Tyro3 (Homo sapiens (Human))

>  <ASSIGNED CLASS>
condition met

$$$$

====

Biological target: Axl (Homo sapiens (Human), UniProt P30530)
Assay: biochemical
Rule: IC50 below 1 µM gives Y. Equal to or above 1 µM gives N.

>  <COMPOUND>
CCCCNc1ncc(-c2ccc(CN3CCOCC3)o2)c(N[C@H]2CC[C@H](O)CC2)n1 [UNC2898A]

>  <ASSIGNED CLASS>
N

$$$$
>  <COMPOUND>
CCCCNc1ncc(-c2cc(NC3CCCCC3)ncn2)c(N[C@H]2CC[C@H](O)CC2)n1 [UNC3194A]

>  <ASSIGNED CLASS>
Y

$$$$
>  <COMPOUND>
CCCCNc1ncc(-c2ncc(CN3CCCC3)s2)c(N[C@H]2CC[C@H](O)CC2)n1 [UNC4223A]

>  <ASSIGNED CLASS>
Y

$$$$
>  <COMPOUND>
CCCCNc1ncc(-c2ccc(F)cn2)c(NC[C@H]2CC[C@H](N)CC2)n1 [UNC3021A]

>  <ASSIGNED CLASS>
Y

$$$$
>  <COMPOUND>
CCCCNc1ncc(-c2ccc(C(=O)NC3CCN(C)CC3)o2)c(N[C@H]2CC[C@H](O)CC2)n1 [UNC3181A]

>  <ASSIGNED CLASS>
N

$$$$
>  <COMPOUND>
CCCCNc1ncc(-c2ccc(CNCc3ccccc3)cn2)c(N[C@H]2CC[C@H](O)CC2)n1 [UNC2572A]

>  <ASSIGNED CLASS>
Y

$$$$
>  <COMPOUND>
CCCCNc1ncc(C(=O)NCCc2ccc(F)cc2)c(N[C@H]2CC[C@H](O)CC2)n1 [UNC1850A]

>  <ASSIGNED CLASS>
N

$$$$
>  <COMPOUND>
CCCCNc1ncc(C(=O)Nc2ccc(CCO)cc2)c(N[C@H]2CC[C@H](O)CC2)n1 [UNC1846A]

>  <ASSIGNED CLASS>
N

$$$$
>  <COMPOUND>
CCCCNc1ncc(C(=O)NC2CC(C)(C)N(C)C(C)(C)C2)c(N[C@H]2CC[C@H](O)CC2)n1 [UNC2695A]

>  <ASSIGNED CLASS>
Y

$$$$
>  <COMPOUND>
CCCCNc1ncc(-c2cc(NC3CCCC3)ncn2)c(N[C@H]2CC[C@H](O)CC2)n1 [UNC3199A]

>  <ASSIGNED CLASS>
N

$$$$
>  <COMPOUND>
CCCCNc1ncc(-c2ccc(CN3CCCC3)cn2)c(N[C@H]2CC[C@H](O)CC2)n1 [UNC2490A]

>  <ASSIGNED CLASS>
Y

$$$$
>  <COMPOUND>
CCCCNc1ncc(-c2ccc(CN3CC(F)(F)C3)o2)c(N[C@H]2CC[C@H](O)CC2)n1 [UNC2900A]

>  <ASSIGNED CLASS>
N

$$$$
>  <COMPOUND>
CCCCNc1ncc(-c2cc(NC(C)C)ncn2)c(N[C@H]2CC[C@H](O)CC2)n1 [UNC3192A]

>  <ASSIGNED CLASS>
Y

$$$$
>  <COMPOUND>
CCCCNc1ncc(-c2cnccn2)c(N[C@H]2CC[C@H](O)CC2)n1 [UNC2794A]

>  <ASSIGNED CLASS>
Y

$$$$
>  <COMPOUND>
CCCCNc1ncc(C(=O)NCCCCO)c(N[C@H]2CC[C@H](O)CC2)n1 [UNC1844A]

>  <ASSIGNED CLASS>
N

$$$$
>  <COMPOUND>
CCCCNc1ncc(-c2ccc(CN3CCCN(C)CC3)cn2)c(N[C@H]2CC[C@H](O)CC2)n1 [UNC2405A]

>  <ASSIGNED CLASS>
Y

$$$$
>  <COMPOUND>
CCCCNc1ncc(-c2ccc(C(=O)N(C)C3CCN(C)CC3)cn2)c(N[C@H]2CC[C@H](O)CC2)n1 [UNC2915A]

>  <ASSIGNED CLASS>
Y

$$$$
>  <COMPOUND>
CCCCNc1ncc(-c2ccc3ccccc3n2)c(N[C@H]2CC[C@H](O)CC2)n1 [UNC2860A]

>  <ASSIGNED CLASS>
N

$$$$
>  <COMPOUND>
CCCCNc1ncc(C(=O)NCC2CCN(C3CCCC3)CC2)c(N[C@H]2CC[C@H](O)CC2)n1 [UNC2743A]

>  <ASSIGNED CLASS>
Y

$$$$
>  <COMPOUND>
CCCCNc1ncc(-c2cccc(CN3CCN(C)CC3)n2)c(N[C@H]2CC[C@H](O)CC2)n1 [UNC2622A]

>  <ASSIGNED CLASS>
Y

$$$$
>  <COMPOUND>
CCCCNc1ncc(C(=O)NCc2ccncc2)c(N[C@H]2CC[C@H](O)CC2)n1 [UNC1849A]

>  <ASSIGNED CLASS>
N

$$$$
>  <COMPOUND>
CCCCNc1ncc(C(=O)NCC2CCN(C)CC2)c(N[C@H]2CC[C@H](O)CC2)n1 [UNC2742A]

>  <ASSIGNED CLASS>
Y

$$$$
>  <COMPOUND>
CCCCCNc1cc(-c2cnc(NCCCC)nc2N[C@H]2CC[C@H](O)CC2)ncn1 [UNC3201A]

>  <ASSIGNED CLASS>
Y

$$$$
>  <COMPOUND>
CCCCNc1ncc(C(=O)NC2CCCCCC2)c(N[C@H]2CC[C@H](O)CC2)n1 [UNC2734A]

>  <ASSIGNED CLASS>
Y

$$$$
>  <COMPOUND>
CCCCNc1ncc(-c2cc(N3CCOCC3)ncn2)c(N[C@H]2CC[C@H](O)CC2)n1 [UNC3196A]

>  <ASSIGNED CLASS>
N

$$$$
>  <COMPOUND>
CCCCNc1ncc(-c2ccc(CNCC3CC3)cn2)c(N[C@H]2CC[C@H](O)CC2)n1 [UNC2547A]

>  <ASSIGNED CLASS>
Y

$$$$
>  <COMPOUND>
CCCCNc1ncc(-c2cc(N3CCCCC3)ncn2)c(N[C@H]2CC[C@H](O)CC2)n1 [UNC3198A]

>  <ASSIGNED CLASS>
N

$$$$

The origin of these recorded values is patent US9649309B2.
